- Method description: NCI Yeast Anticancer Drug Screen. Data for the mlh1 rad18 strain (AID 175)
- Condition label: S. cerevisiae mlh1 rad18 strain growth inhibition; at 5.0 µM (retest, dose inferred, filed as 0.5)
Compounds without any hit were thinned out: in the full panel of roughly 79,000, 15% have a hit. Active and inactive are the calls of the source. Rule as the data show it: active = growth inhibition above about 70%; inactive = the rest.
Your reply should match one of these outcome classes. 1.0 (active), 0.0 (inactive)

Molecule | Cat
CCOC(=O)C1(C)CCCC1N (stereo not drawn) | 0.0
S=C=Nc1ccc(N2CCOCC2)cc1 | 0.0
CC(CSc1n[nH]c(=S)s1)c1ccccc1 (stereo not drawn) | 0.0
COc1cccc(NC(=O)C(C#N)=C(SC)SC)c1 | 0.0

Exam item: Identify the outcome logged in this assay for the molecule shown: O=C1CSC(=S)N1Cc1cccnc1
Marked response: 0.0

Exam item: Any idea what this test logged for COc1ccc2nc3cc([N+](=O)[O-])ccc3c(NNc3ccccc3)c2c1 ?
Marked response: 0.0

Exam item: What did the test return for O=C(/C=C/c1ccccc1)c1ccc(N=Cc2ccccc2)cc1 ?
Marked response: 0.0

Exam item: What outcome does the record of this test show for C[C@@H]1CCC([C@@H](C)[C@H]2CC[C@H]3[C@@H]4CC[C@H]5C[C@@H](O)CC[C@]5(C)[C@H]4CC[C@]23C)=NC1 ?
Marked response: 1.0

Exam item: # lookup: test call for O=C(NNc1ccccc1)OCc1ccccc1
Marked response: 0.0

Exam item: What classification did Cc1oc2c(C)c3oc(=O)cc(C)c3cc2c1CCl end up with in this test?
Marked response: 0.0

Exam item: Test call, this molecule: Cc1onc(-c2ccccc2)c1C(=O)N/N=C/c1cc(Cl)cc(Cl)c1O
Marked response: 1.0

---

- Method description: NCI Yeast Anticancer Drug Screen. Data for the rad50 strain (AID 155);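 also: 0% = growth of vehicle-only cultures of the same strain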
- Condition label: S. cerevisiae rad50 strain growth inhibition; at 50.0 µM
This is part of a sample that, as a whole, favours compounds with a hit. Of some 79,000 tested, about 15% had one in any assay. The source made the active and inactive calls. No stated cut-off is given here; in the data, active means growth inhibition above about 70%; inactive means the rest.
Your response should consist of one outcome taken from active, inactive

# example entries with known answers
Compound | Cat
CC1(c2ccc(O)cc2)CCC(C(C)(C)c2ccc(O)cc2)CC1 (stereo not drawn) | active
CSc1nc(C)c(C(=O)CCN2CCN(c3ccccn3)CC2)s1 | active
NNc1cccc([N+](=O)[O-])c1 | active

Then this compound:
Exam item: Give the logged outcome of this assay for the following compound: CCCCC(CCc1ccc([N+](=O)[O-])cc1)(C(C)=O)C(=O)OCC (stereo not drawn)
Marked response: inactive

---

- Method description: NCI Yeast Anticancer Drug Screen. Data for the rad50 strain (AID 155);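 also: 0% = growth of vehicle-only cultures of the same strain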
- Condition label: S. cerevisiae rad50 strain growth inhibition; at 50.0 µM
The panel holds about 79,000 compounds, 15% with a hit somewhere; the sample as a whole holds those more often. Active and inactive are the calls of the source. Rule as the data show it: active = growth inhibition above about 70%; inactive = the rest.
Write down one outcome, taken from Yes (active), No (inactive)

Compound | Cat
CCCCCCCCCCCC1=NCCCN1CCCC | Yes
CC(=O)Nc1ccc(C(=O)CCl)cc1 | Yes
O=C1C=CC(=O)N1c1cc(Cl)c(Cl)cc1Cl | Yes
COc1cc(-c2ccc(-[n+]3nc(-c4ccc([N+](=O)[O-])cc4)nn3-c3ccc([N+](=O)[O-])cc3)c(OC)c2)ccc1-[n+]1nc(-c2ccc([N+](=O)[O-])cc2)nn1-c1ccc([N+](=O)[O-])cc1 | Yes
O=C(NNc1ccccc1)OCc1ccccc1 | No

Exam item: State the result this test recorded for S=C(S)OCN1CCOCC1 .
Marked response: Yes

Exam item: Dear colleague, could you share the recorded outcome for NC1=C(Br)C(=O)c2ncccc2C1=O when you have a moment?
Marked response: Yes

Exam item: Status in this test for CCC1CCCCN1C(=S)N/N=C(\C)c1ccccn1 (stereo not drawn) ?
Marked response: Yes

Exam item: Hi team, can someone confirm the assay call for C/C(=N\NC(=S)N1CC2CCC(CC2)C1)c1ccccn1 ?
Marked response: Yes

Exam item: GET /call?item= O=C(Nc1ccc(Cl)c(Cl)c1)OCc1ccco1 returns the recorded outcome of this test.
Marked response: Yes

Exam item: What outcome does the record of this test show for O=C(O)c1cccc2cccc(-c3c4ccc(=O)c(O)c-4oc4c(O)c(O)ccc34)c12 ?
Marked response: Yes

Exam item: Dear all, I need the recorded test outcome for O=C(Nc1ccc(Cl)c(Cl)c1)Nc1ccccc1O , thank you.
Marked response: No

Exam item: Per the records of this test, what outcome belongs to CCCCCCCCCCCCCCCCCC[S+](C)CC (stereo not drawn) ?
Marked response: Yes

---

- Method description: NCI Yeast Anticancer Drug Screen. Data for the rad50 strain (AID 155);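 also: 0% = growth of vehicle-only cultures of the same strain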
- Condition label: S. cerevisiae rad50 strain growth inhibition; at 5.0 µM (retest, dose inferred, filed as 0.5)
Compounds without any hit were thinned out: in the full panel of roughly 79,000, 15% have a hit. Activity calls are given as the source filed them. Cut-off read from the data, not from the text of the source: active = growth inhibition above about 70%; inactive = the rest.
I would appreciate it if you answered using one of these outcomes: active, inactive

Please review the entries below; each comes with its answer.
Molecule | Cat
C[n+]1ccccc1C[n+]1ccccc1 | inactive
S=c1[nH]c(=S)c2[nH]c(=S)[nH]c2[nH]1 | inactive
COc1cccc2c1C(=O)c1c(O)c3c(c(O)c1C2=O)C[C@@](O)(C(=O)CO)C[C@@H]3OC1CC(OC(C)=O)C(OC(C)=O)C(C)O1 (stereo partly drawn) | active
CC(C)NC(=O)C(C)O (stereo not drawn) | inactive
CC1CC(C)(C)OB(OC(C)CC(C)(C)OB2OC(C)CC(C)(C)O2)O1 (stereo not drawn) | inactive
N#CC(c1ccccc1)C(c1ccccc1)c1ccccc1 (stereo not drawn) | inactive

Exam item: # outcome recorded in this test, key = Oc1ccc(Br)cc1Sc1cc(Br)ccc1O
Marked response: inactive

Exam item: Please let me know the test result on file for CN=C(N)N/N=C(\C)c1ccc2c(c1)Cc1ccccc1-2 .
Marked response: inactive

Exam item: What classification did COc1cc2c(c(OC)c1OC)-c1ccc(NCc3ccccc3)c(=O)cc1[C@@H](NC(C)=O)CC2 end up with in this test?
Marked response: inactive

Exam item: Which outcome was entered for the molecule OC(c1cc2ccc(C(F)(F)F)cc2c2cc(C(F)(F)F)ccc12)C1CCCCN1 (stereo not drawn) in this test?
Marked response: active

Exam item: What did this assay record as the result for Oc1ccc(/C=C/c2ccc(Cl)cc2)cc1 ?
Marked response: inactive

Exam item: Hello, I am checking results. What call was entered for CC(=O)Oc1c(Br)cc(Br)cc1C(OC(C)=O)OC(C)=O ?
Marked response: inactive

Exam item: Name the outcome recorded for O=C(/C(Cl)=N/O)c1ccc(-c2ccccc2)cc1 in the assay.
Marked response: inactive

Exam item: Could you kindly confirm the outcome this assay logged for C1CCC(CCCc2nn[nH]n2)CC1 ?
Marked response: inactive

---

- Method description: NCI Yeast Anticancer Drug Screen. Data for the rad50 strain (AID 155);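 also: 0% = growth of vehicle-only cultures of the same strain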
- Condition label: S. cerevisiae rad50 strain growth inhibition; at 5.0 µM (retest, dose inferred, filed as 0.5); active compounds read high
The panel holds about 79,000 compounds, 15% with a hit somewhere; the sample as a whole holds those more often.
Measured endpoint: growth inhibition (%)
// note: answer is a bare numeric in %

As a guide, the following entries are already answered.
Molecule | Unit of measurement | growth inhibition
O=C1/C(=C/c2ccccc2)CCC/C1=C\c1ccccc1 | % | 27
O=C/C=C/c1ccc([N+](=O)[O-])cc1 | % | 24
O=[N+]([O-])/C=C/c1cccs1 | % | 95
O=c1c2ccccc2ncn1O | % | -1

Exam item: // query growth inhibition value for entry C=C(C(N)=O)C(N)C(=O)O (configuration not stated)
Marked response: -5

Exam item: So what does the record say about growth inhibition for Cc1cc(C(=C2C=CC(=Nc3ccccc3)C=C2)c2ccc(Nc3ccccc3)cc2)ccc1N ?
Marked response: 6

Exam item: Look up growth inhibition for this molecule: CCOC(=O)C(NC(C)=O)C(=O)c1ccccc1 (configuration not stated)
Marked response: -3

---

- Method description: NCI Yeast Anticancer Drug Screen. Data for the bub3 strain (AID 167)
- Condition label: S. cerevisiae bub3 mutant strain, at 50.0 µM, active compounds read high
About 79,000 compounds went through this panel and 15% of them were active in at least one assay; those are over-represented in the sample as a whole.
Measured endpoint: growth inhibition (%)
Field format: number, assumed %, no unit text.

Solved entries:
Compound | growth inhibition / %
COc1cc(NC(=O)C2=C(C)NC(C)=C(C(=O)Nc3cc(OC)c(Cl)cc3OC)C2c2cccc([N+](=O)[O-])c2)c(OC)cc1Cl | 95.5
O=C1C=CC(=O)N1c1ccc(O)cc1 | 96.8
NC1=C(Br)C(=O)c2ncccc2C1=O | 90.3
CCOc1ccc(C(CN2CCOCC2)C(C)=O)cc1OC (stereo not given) | 78.7

Exam item: Any idea what its growth inhibition is? The compound is CC1=C(C2=C(C)C(=O)C(=O)c3cc(C)ccc32)c2ccc(C)cc2C(=O)C1=O
Marked response: 90.9
